Just for reference, PubChem BioAssay AID1851 is where these values come from.

Target: Cytochrome P450 3A4 (Homo sapiens)
Test: Cytochrome panel assay with activity outcomes
Conditions: recombinant CYP, pro-luciferin dealkylation, luminescence, p450-cyp3a4; series mostly up to 57.1 µM
The whole screen tested about 16,000 compounds, of which about 5,100 (32%) were called active. Roughly 25% stayed inconclusive and do not appear here. Calls come from the whole dose curve; as a rule, active = well fitted curve in the direction sought with a large enough effect; inconclusive = small, poorly fitted or top-dose-only effect, or effect the other way; inactive = no such curve, though single readings can be large or run the other way. The list shows a part of the results.
Pick one and only one: active, inactive

Compound: CCOc1ccc(C(=O)Nc2ccc(Cl)cn2)cc1Cl
Class assignment: inactive
--
Compound: CN(C)C(=O)c1ccc(-c2cncnc2NCCc2cnc[nH]2)cc1
Class assignment: active
--
Compound: Cc1ccc(NCC(=O)N/N=C\c2ccc([N+](=O)[O-])o2)cc1
Class assignment: active
--
Compound: CC(C)(C)c1ccc(OCC(=O)N/N=C/c2cc(Br)ccc2OC(=O)c2ccco2)cc1
Class assignment: inactive

Assay outcome for COc1ccc(C(=O)Nc2ccc(Cl)cn2)cc1Cl : what was it?
active

Assay outcome for Cc1ccc(N(CC(N)=O)C2SC(=O)N(Cc3cccc(C(=O)O)c3)C2=O)cc1 (stereo not given) : what was it?
inactive

Assay outcome for COCCN1C(=O)C(=O)/C(=C(/O)c2cccc(OC)c2)C1c1ccco1 (stereo not given) : what was it?
inactive

Assay outcome for COc1ccc(C2/C(=C(/O)c3ccccc3)C(=O)C(=O)N2CC(C)O)c(OC)c1 (stereo not given) : what was it?
inactive

Assay outcome for CN(C)C(=O)c1ccc(-c2cncnc2NC2CCNCC2)cc1 : what was it?
inactive

Assay outcome for CCN1CCN(C(=O)N[C@H](C(=O)N[C@@H]2C(=O)N3[C@@H]2SC(C)(C)[C@@H]3C(=O)O)c2ccccc2)C(=O)C1=O : what was it?
inactive

---

Biological target: Cytochrome P450 3A4 (Homo sapiens) (UniProt P08684)
Sequence (P08684 whole entry, looked up): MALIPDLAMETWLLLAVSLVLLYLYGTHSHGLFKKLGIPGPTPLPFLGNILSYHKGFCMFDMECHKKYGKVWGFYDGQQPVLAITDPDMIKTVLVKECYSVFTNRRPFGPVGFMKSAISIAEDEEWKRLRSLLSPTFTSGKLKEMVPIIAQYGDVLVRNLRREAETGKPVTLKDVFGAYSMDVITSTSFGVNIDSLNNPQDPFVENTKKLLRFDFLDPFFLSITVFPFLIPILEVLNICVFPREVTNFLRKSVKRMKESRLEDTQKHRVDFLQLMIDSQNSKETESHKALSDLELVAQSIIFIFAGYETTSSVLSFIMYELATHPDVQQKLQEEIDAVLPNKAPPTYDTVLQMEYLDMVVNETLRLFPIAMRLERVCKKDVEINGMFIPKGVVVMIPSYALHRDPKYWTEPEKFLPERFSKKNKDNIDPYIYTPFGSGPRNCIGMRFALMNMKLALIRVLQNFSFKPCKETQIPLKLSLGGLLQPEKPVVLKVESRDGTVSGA
Test: Cytochrome panel assay with activity outcomes
Conditions: recombinant CYP, pro-luciferin dealkylation, luminescence, p450-cyp3a4; series mostly up to 57.1 µM
Among all 16,000 compounds or so, about 5,100 (32%) were called active. Another 25% or so got no clear call; they are omitted. This is one part of the list.
Result type: AC50

Answered cases to consult:
Mol smiles: Cc1cc2cc3c(C)cc(=O)oc3c(C)c2o1
Test result: 3.98 µM (active)
//
Mol smiles: COc1ccccc1CNc1ncnc2ccc(-c3cccc(NS(C)(=O)=O)c3)cc12
Test result: 3.16 µM (active)
//
Mol smiles: CC(=O)N(O)CCCCCNC(=O)CCC(=O)N(O)CCCCCNC(=O)CCC(=O)N(O)CCCCCN
Test result: inactive
//
Mol smiles: CC(=O)NC1=NN(c2ccccc2)C(=O)C1
Test result: inactive
//
Mol smiles: NC(=O)C1(N2CCCCC2)CCN(C(=O)c2ccc(-n3cnnn3)cc2)CC1
Test result: inactive

// next entry
Provide measured AC50 on Cytochrome P450 3A4 (Homo sapiens) (UniProt P08684) for CCn1c2ccccc2c2cc(NS(=O)(=O)c3ccccc3C)ccc21 please.
1 µM (active)

---

Biological target: Cytochrome P450 3A4 (Homo sapiens) (UniProt P08684)
Test: Cytochrome panel assay with activity outcomes
Conditions: recombinant CYP, pro-luciferin dealkylation, luminescence, p450-cyp3a4; series mostly up to 57.1 µM
In all, about 16,000 compounds went through this assay and about 5,100 (32%) were called active. About 25% were inconclusive and are not listed. The call rests on the fitted dose curve; in most records, active means well fitted curve in the direction sought with a large enough effect; inconclusive means small, poorly fitted or top-dose-only effect, or effect the other way; inactive means no such curve, though single readings can be large or run the other way. Some of the results follow.
Pick one and only one: active, inactive

Molecule: N#Cc1ccc(CN2CC3(CCN(C(=O)c4cc(C(F)(F)F)cc(C(F)(F)F)c4)CC3)C2)cc1
Measured on: Cytochrome P450 3A4 (Homo sapiens) (UniProt P08684)
Class assignment: inactive

Molecule: N#Cc1ccc(CN2CC[C@@]3(CCCN(C(=O)c4cc(C(F)(F)F)cc(C(F)(F)F)c4)C3)C2)cc1
Measured on: Cytochrome P450 3A4 (Homo sapiens) (UniProt P08684)
Class assignment: active

Molecule: O=C(c1cc(C(F)(F)F)cc(C(F)(F)F)c1)N1CCC2(CC1)CN(Cc1ccccc1)C2
Measured on: Cytochrome P450 3A4 (Homo sapiens) (UniProt P08684)
Class assignment: inactive

Assay outcome for N#Cc1ccc(CN2CCC3(CC2)CCN(C(=O)c2cc(C(F)(F)F)cc(C(F)(F)F)c2)CC3)cc1 : what was it?
inactive

Assay outcome for Cc1ccc(C(c2nnnn2CC2CCCO2)N2CCN(C(=O)c3ccco3)CC2)cc1 (centres undefined) : what was it?
active

Assay outcome for O=C(c1cc(C(F)(F)F)cc(C(F)(F)F)c1)N1CCC[C@@]2(CCN(Cc3ccccc3)C2)C1 : what was it?
active

Assay outcome for CC(C)Cn1cnc2c(SCc3ccc(Cl)cc3Cl)nc(N)nc21 : what was it?
active

Assay outcome for O=C(c1ccncc1)N1CCC2(CC1)CN(Cc1cc(C(F)(F)F)cc(C(F)(F)F)c1)C2 : what was it?
active

Assay outcome for O=C(c1ccco1)N1CCN(C(=O)c2nn3cccnc3c2Cl)CC1 : what was it?
inactive

---

Biological target: Cytochrome P450 3A4 (Homo sapiens) (UniProt P08684)
Test: Cytochrome panel assay with activity outcomes; for activity, negative = inhibition: % is set by controls: 0 for no effect and ±100 for the full control effect
Settings: recombinant CYP, pro-luciferin dealkylation, luminescence, p450-cyp3a4; series mostly up to 57.1 µM
The campaign covered roughly 16,000 compounds. About 5,100 (32%) were called active. Not shown: some 25% with an inconclusive outcome. Some of the results follow.
activity, negative = inhibition listing for selected molecules.

Molecule: CN(C(=O)c1cnc(N2CCN(c3ncccn3)CC2)c2ccccc12)c1ccc(Cl)cc1
Measured on: Cytochrome P450 3A4 (Homo sapiens) (UniProt P08684)
activity, negative = inhibition: 28.1% [at 11.4 µM] (inactive)

Provide measured activity, negative = inhibition on Cytochrome P450 3A4 (Homo sapiens) (UniProt P08684) for O=C(CSc1nnc2c3ccccc3c3ccccc3c2n1)Nc1ccccc1 please.
1.75% [at 2.29 µM] (inactive)

Provide measured activity, negative = inhibition on Cytochrome P450 3A4 (Homo sapiens) (UniProt P08684) for CC(=O)Nc1ccc(Cc2ccc3[nH]c(=O)cc(C)c3c2)cc1 please.
-20.4% [at 11.4 µM] (inactive)

Provide measured activity, negative = inhibition on Cytochrome P450 3A4 (Homo sapiens) (UniProt P08684) for O=C(O)c1cccc2cccc(-c3cccc4cccc(C(=O)O)c34)c12 please.
-5.55% [at 11.4 µM] (inactive)

Provide measured activity, negative = inhibition on Cytochrome P450 3A4 (Homo sapiens) (UniProt P08684) for O=C(NCCCN1CCCC1=O)c1ccc(CNS(=O)(=O)c2ccc(F)cc2)cc1 please.
-13.5% [at 11.4 µM] (inactive)

---

Target: Cytochrome P450 3A4 (Homo sapiens) (UniProt P08684)
Experiment: Cytochrome panel assay with activity outcomes
Conditions: recombinant CYP, pro-luciferin dealkylation, luminescence, p450-cyp3a4; series mostly up to 57.1 µM
Screen size: about 16,000 compounds; about 5,100 (32%) were called active. Roughly 25% stayed inconclusive and do not appear here. Calls come from the whole dose curve; as a rule, active = well fitted curve in the direction sought with a large enough effect; inconclusive = small, poorly fitted or top-dose-only effect, or effect the other way; inactive = no such curve, though single readings can be large or run the other way. Some of the results follow.
Pick one and only one: True = active, False = inactive

Compound: COc1cc2c(c(O)c1OC)C(=O)C(OC)CCC2 (configuration not stated)
Measured on: Cytochrome P450 3A4 (Homo sapiens) (UniProt P08684)
Class assignment: False

Compound: COCCNC(=O)COc1ccc(Oc2ccccc2)cc1
Measured on: Cytochrome P450 3A4 (Homo sapiens) (UniProt P08684)
Class assignment: False

Compound: COc1ccc2nc3c(c([Si](C)(C)C(C)(C)C)c2c1)Cn1c-3cccc1=O
Measured on: Cytochrome P450 3A4 (Homo sapiens) (UniProt P08684)
Class assignment: True

Compound: COc1cc2nc3c(c([Si](C)(C)C(C)(C)C)c2cc1OC)Cn1c-3cccc1=O
Measured on: Cytochrome P450 3A4 (Homo sapiens) (UniProt P08684)
Class assignment: True

Compound: CCc1nc(SCC(=O)NCCc2ccccc2)c2oc3ccccc3c2n1
Measured on: Cytochrome P450 3A4 (Homo sapiens) (UniProt P08684)
Class assignment: True

Compound: CCn1c2ccccc2c2cc(N=C3SC(CC(=O)Nc4ccccc4)C(=O)N3C)ccc21 (configuration not stated)
Measured on: Cytochrome P450 3A4 (Homo sapiens) (UniProt P08684)
Class assignment: True

Compound: CCCCOC(=O)CCc1c(C)[nH]c(=O)c(C#N)c1C
Measured on: Cytochrome P450 3A4 (Homo sapiens) (UniProt P08684)
Class assignment: False

Compound: COc1ccc(C(=O)NCC(c2ccc(F)cc2)N2CCOCC2)cc1S(=O)(=O)N1CCCC1 (configuration not stated)
Measured on: Cytochrome P450 3A4 (Homo sapiens) (UniProt P08684)
Class assignment: False

Assay outcome for Cc1cc(C)cc(N(C(=O)c2ccccn2)C(C(=O)NC2CCCCC2)c2cccs2)c1 (configuration not stated) : what was it?
True

Assay outcome for COc1ccc(OC)c2[nH]c(=O)c(CCNC(=O)COc3ccccc3)cc12 : what was it?
True

Assay outcome for CCc1nc(SCC(=O)N2CCCc3ccccc32)c2oc3ccccc3c2n1 : what was it?
True

Assay outcome for COc1ccc(OC)c2[nH]c(=O)c(CCNC(=O)c3ccc(S(=O)(=O)N4CCCC4)cc3)cc12 : what was it?
True

Assay outcome for CCc1nc(N[C@H](C(=O)O)C(C)CC)c2oc3ccccc3c2n1 (some centres not stated) : what was it?
False

Assay outcome for CCc1nc(SCC(=O)c2ccc(Cl)s2)c2oc3ccccc3c2n1 : what was it?
True

Assay outcome for Cc1ccc(C(=O)N/C(=C/C=C/c2ccccc2)C(=O)NCc2ccco2)cc1 : what was it?
True

Assay outcome for COc1cccc(-c2ccc3ncnc(N(C)Cc4ccco4)c3c2)c1 : what was it?
True

Assay outcome for CC(C)(C)[Si](C)(C)c1c2c(nc3ccc(OCc4ccccc4)cc13)-c1cccc(=O)n1C2 : what was it?
True

Assay outcome for CN(Cc1ccco1)c1ncnc2ccc(-c3cccnc3)cc12 : what was it?
True

Assay outcome for COc1cccc(Cn2c(=O)c(CCc3ccccc3)nc3cnc(N4CCNCC4)nc32)c1 : what was it?
True

Assay outcome for CS(=O)(=O)Nc1cccc(-c2nc(NCc3ccccc3)c3ccccc3n2)c1 : what was it?
True

Assay outcome for O=C(NC1CCCCC1)C(c1cccs1)N(C(=O)C(F)(F)F)c1ccccc1 (configuration not stated) : what was it?
True

Assay outcome for CC[N+](CC)(CC)CC(=O)Nc1c(C)cccc1C : what was it?
False
